Biological target: T1, NR1H3 204-447 Hormone_recep (domain begin residue: 204, domain end residue: 447), Q13133
T1 chain: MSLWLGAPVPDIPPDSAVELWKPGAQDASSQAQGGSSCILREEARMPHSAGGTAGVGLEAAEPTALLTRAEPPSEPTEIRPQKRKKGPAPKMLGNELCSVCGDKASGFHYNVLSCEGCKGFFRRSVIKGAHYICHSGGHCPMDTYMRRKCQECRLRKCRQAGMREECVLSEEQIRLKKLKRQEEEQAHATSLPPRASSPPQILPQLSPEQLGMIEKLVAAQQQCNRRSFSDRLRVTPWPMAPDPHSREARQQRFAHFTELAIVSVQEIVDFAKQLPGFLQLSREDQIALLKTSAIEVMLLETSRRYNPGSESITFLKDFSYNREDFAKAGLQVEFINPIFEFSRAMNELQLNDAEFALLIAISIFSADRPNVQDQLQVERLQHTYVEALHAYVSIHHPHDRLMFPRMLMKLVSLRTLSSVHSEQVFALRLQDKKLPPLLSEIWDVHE
Test: phage ELISA signal ratio (GST-PRM binding over GST background); higher = stronger binding of peptide-phage to the PRM
Assignment: determine reported phage ELISA signal ratio for the given binders.
Give bare numbers.

Recorded results for 4 binders are shown here.
{"columns": ["binder", "phage ELISA signal ratio"],
 "data": [
  ["EMLLDQQMWEWVQAMS", 26.9],
  ["YPEIAWLQQMMQSDSR", 28.4],
  ["SADSMYPELDWLVWAM", 10],
  ["DYPEVEWLTQQWDFWS", 17]
]}

// below: phage ELISA signal ratio requested for another binder
Form field phage ELISA signal ratio, entry QDEDVWWAWMMGLGME : 8.99
